biological target: Cytochrome P450 2C9 (Homo sapiens) (UniProt P11712); assay: Cytochrome P450 Family 2 Subfamily C Member 9 (CYP2C9) small molecule antagonists: luciferase reporter qHTS assay (AID 1671198); details: P450-Glo CYP2C9 enzyme assay, luciferin luminescence; series mostly up to 115 µM; further: nearly all actives have a fitted effect of over 50% in size
Sequence (P11712 whole entry, looked up): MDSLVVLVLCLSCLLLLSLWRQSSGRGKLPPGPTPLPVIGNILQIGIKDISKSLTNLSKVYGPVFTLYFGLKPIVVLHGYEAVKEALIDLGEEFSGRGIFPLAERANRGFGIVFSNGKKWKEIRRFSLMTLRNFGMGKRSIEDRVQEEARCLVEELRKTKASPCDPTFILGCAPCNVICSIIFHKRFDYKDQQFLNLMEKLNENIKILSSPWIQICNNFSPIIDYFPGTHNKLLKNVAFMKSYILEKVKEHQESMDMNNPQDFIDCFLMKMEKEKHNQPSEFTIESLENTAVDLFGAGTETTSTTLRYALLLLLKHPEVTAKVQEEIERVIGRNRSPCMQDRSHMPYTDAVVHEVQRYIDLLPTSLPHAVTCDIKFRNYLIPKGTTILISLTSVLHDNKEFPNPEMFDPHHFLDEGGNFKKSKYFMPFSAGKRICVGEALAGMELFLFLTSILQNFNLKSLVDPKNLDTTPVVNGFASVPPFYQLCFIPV
Results filed as inconclusive are left out. Calls of active or inactive are those of the source. The call rests on the fitted dose curve; in most records, active means well fitted inhibition curve with a large enough effect in the repeat runs; inconclusive means weak or mixed curves; inactive means no such curve, though single readings can be large or run the other way.
Please reply with one of these outcomes: y = active, n = inactive

Example cases with answers are listed next.
{"COMPOUND": "O=S(=O)(O)SSS(=O)(=O)O", "LABEL": "y"}
{"COMPOUND": "CC(=O)OC(C)(C)Cc1ccccc1", "LABEL": "n"}
{"COMPOUND": "NS(=O)(=O)c1cc2c(cc1Cl)NC(C(Cl)Cl)NS2(=O)=O (centres undefined)", "LABEL": "n"}
{"COMPOUND": "Oc1ccccc1Cc1ccccc1O", "LABEL": "y"}
{"COMPOUND": "FC(F)(F)c1ccc(Cl)cc1Cl", "LABEL": "n"}

QUERY: Outcome logged for C=C[Si](C)(C)O[Si](C)(C)C=C in this assay:
RESULT: n

QUERY: Outcome logged for COc1cc2c(Nc3ccc(Br)cc3F)ncnc2cc1OCC1CCN(C)CC1 in this assay:
RESULT: n

QUERY: Outcome logged for CCN1CN(CC)CN(CC)C1 in this assay:
RESULT: n

QUERY: Outcome logged for C=COCCOCCOC=C in this assay:
RESULT: n

QUERY: Outcome logged for COc1cc([N+](=O)[O-])ccc1N in this assay:
RESULT: n

QUERY: Outcome logged for CC(CC(=O)O)CC(C)(C)C (centres undefined) in this assay:
RESULT: n

QUERY: Outcome logged for COc1cccc2sc(N)nc12 in this assay:
RESULT: n

QUERY: Outcome logged for c1ccccc1 in this assay:
RESULT: n

QUERY: Outcome logged for F[Si-2](F)(F)(F)(F)F in this assay:
RESULT: n

QUERY: Outcome logged for O=C(CN1CCN(Cc2ccc3c(c2)OCO3)CC1)N1c2ccccc2Sc2ccccc21 in this assay:
RESULT: y

QUERY: Outcome logged for C=CCOC(=O)c1ccc(C(=O)OCC=C)c(C(=O)OCC=C)c1 in this assay:
RESULT: y

QUERY: Outcome logged for CC(C)CCC(=O)CCC(C)C in this assay:
RESULT: n

QUERY: Outcome logged for CCCCCCCCCOCC1CO1 (centres undefined) in this assay:
RESULT: y

QUERY: Outcome logged for CNC(=O)NC in this assay:
RESULT: n

QUERY: Outcome logged for CC(C)C(=O)Nc1cccc(C(F)(F)F)c1 in this assay:
RESULT: n

QUERY: Outcome logged for Nc1cc(Cl)cc(S(=O)(=O)O)c1O in this assay:
RESULT: y

QUERY: Outcome logged for CCCO in this assay:
RESULT: n

QUERY: Outcome logged for CC(C)COC(=O)CCCCC(=O)OCC(C)C in this assay:
RESULT: y

QUERY: Outcome logged for COCC(=O)Nc1c(I)c(C(=O)NCC(O)CO)c(I)c(C(=O)N(C)CC(O)CO)c1I (centres undefined) in this assay:
RESULT: n
